From: paper PMC6675120

- test target: UniProtKB Q6ZXC0
- procedure details: Continuous fluorogenic (FRET) TcMCP-1 assay with Abz-LKFK(Dnp)-OH, primary and secondary screening
- Format: biochemical
- condition info: secondary (31,5 µM) / primary (25 µM) inhibition
readout kind: TcMCP-1 2º/1º ratio

O=C(NNC(=O)c1ccccn1)c1ccc(-c2ccccc2)cc1 [TCMDC-143263]	0,31

Request: Under UniProtKB Q6ZXC0: TcMCP-1 2º/1º ratio value of CC(C)Oc1ccc(C(=O)Nc2ccc(N3CCOCC3)c(Cl)c2)cc1 [TCMDC-143592] ?
Result: 1,03

Request: Here is the next compound: COc1ccc2ncc(Cl)c(CCN3CC[C@@H](NCc4cc5c(cn4)OCS5)[C@H](O)C3)c2n1 [TCMDC-143513]
Result: 1,07

Request: Then COc1cccc(-c2cc(C(F)(F)F)nc(-n3ccc([N+](=O)[O-])n3)n2)c1 [TCMDC-143105] ?
Result: 0,34

Request: Also need COc1cccc(S(=O)(=O)Nc2ccc3c(c2)CC(N2CCC(NC(=O)C4CC4)CC2)C3)c1 (centres unmarked) [TCMDC-143583] , thanks.
Result: -0,15

Request: What do you have for N#Cc1ccc(S(=O)(=O)N2CCN(Cc3cccc(-c4ccncc4)c3)CC2)cc1 [TCMDC-143620] ?
Result: 1,18

Request: Would you mind doing O=C(O)C(F)(F)F.O=C(O)C(F)(F)F.O=C1COC(c2ccccc2)(c2ccccc2)CN1C1CCN(Cc2ccc(-n3ccnc3)cc2)CC1 [TCMDC-143543] as well?
Result: 0,72

Request: Cool, now CS(=O)(=O)c1cccc(CNC(=O)c2cncc(N3CCN(c4ccc(F)cc4)CC3)c2)c1 [TCMDC-143385]
Result: 1,88

###

- test target: TcMCP-1 (Trypanosoma cruzi)
- Sequence (Q6ZXC0 entry or part of it): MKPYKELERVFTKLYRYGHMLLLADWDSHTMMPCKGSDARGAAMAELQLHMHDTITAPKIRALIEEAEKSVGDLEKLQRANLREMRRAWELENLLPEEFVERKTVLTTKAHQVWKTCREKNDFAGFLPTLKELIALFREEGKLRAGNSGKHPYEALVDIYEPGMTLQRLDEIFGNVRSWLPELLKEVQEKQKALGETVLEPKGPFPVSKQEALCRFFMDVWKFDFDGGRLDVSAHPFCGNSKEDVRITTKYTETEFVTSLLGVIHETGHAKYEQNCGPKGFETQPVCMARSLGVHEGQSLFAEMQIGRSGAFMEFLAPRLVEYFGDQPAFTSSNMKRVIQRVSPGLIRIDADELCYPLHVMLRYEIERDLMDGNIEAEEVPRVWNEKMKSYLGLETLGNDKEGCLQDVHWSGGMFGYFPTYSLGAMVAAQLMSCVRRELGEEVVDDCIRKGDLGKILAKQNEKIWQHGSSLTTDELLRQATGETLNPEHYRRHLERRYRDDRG
- procedure details: Continuous fluorogenic (FRET) TcMCP-1 assay with Abz-LKFK(Dnp)-OH, primary and secondary screening
- Format: biochemical
readout kind: IC50 (µM)
I only need the number, in µM, no unit after it.

O=C(Nc1nc2cc(Cl)ccc2o1)c1cccc(Cl)c1	11.2
COc1ccc(S(=O)(=O)Nc2ccc(CN3CCN(C(=O)c4cccc(C#N)c4)CC3)cc2)cc1.O=C(O)C(F)(F)F	34.9
O=C(NNC(=O)c1ccccn1)c1ccc(-c2ccccc2)cc1	40.7

Could you now look at the following molecule, please?
Request: Please give the measured IC50 for this molecule: `C[C@@H](Oc1cc(-n2cnc3ccc(O[C@H]4CCNC4)cc32)sc1C(N)=O)c1ccccc1Cl`
Result: 21.8

###

Recorded pIC50 for the following molecules
- test target: TbMCP-1 (Trypanosoma brucei)
- Sequence (Q386R0 entry or part of it): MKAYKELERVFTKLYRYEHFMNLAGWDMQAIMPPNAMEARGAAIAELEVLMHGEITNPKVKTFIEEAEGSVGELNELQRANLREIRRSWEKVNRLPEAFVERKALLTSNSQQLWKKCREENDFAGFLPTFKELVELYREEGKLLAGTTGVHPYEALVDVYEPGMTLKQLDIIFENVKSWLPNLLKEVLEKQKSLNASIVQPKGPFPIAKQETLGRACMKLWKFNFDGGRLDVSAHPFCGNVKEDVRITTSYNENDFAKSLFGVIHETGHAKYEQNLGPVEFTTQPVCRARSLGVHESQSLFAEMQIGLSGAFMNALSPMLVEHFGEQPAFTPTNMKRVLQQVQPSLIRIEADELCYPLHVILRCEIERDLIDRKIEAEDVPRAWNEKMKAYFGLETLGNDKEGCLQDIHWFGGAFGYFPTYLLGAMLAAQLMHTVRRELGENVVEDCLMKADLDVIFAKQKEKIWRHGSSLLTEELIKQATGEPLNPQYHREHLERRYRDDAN
- procedure details: Continuous fluorogenic (FRET) TbMCP-1 assay with Abz-RFFK(Dnp)-OH, primary and secondary screening
- Assay type: biochemical
When answering, recall that pIC50 equals minus log10 of the concentration in mol/L, and write that number alone.

CCC1Oc2cc(S(=O)(=O)N(C)CC(=O)N3CCc4ccccc4C3)c(C)cc2NC1=O (centres unmarked)	4.63
Cc1ccc2c(c1)-c1onc(C(=O)N3CCCCC3c3cccnc3)c1CO2 (centres unmarked)	4.79
O=c1[nH]c(C=Cc2cccc(OCCOc3ccccc3)c2)nc(O)c1[N+](=O)[O-]	4.55
Cl.Cl.O=c1cc(NCCCNCc2cc(C(F)(F)F)cs2)[nH]c2ccccc12	4.68
O=C(N[C@H](CO)c1ccccc1)c1ccc(-c2c[nH]c3nccc(C(F)(F)F)c23)s1	4.36

Let's switch to this molecule now.
Request: # lookup: pIC50 of `N#Cc1cc([N+](=O)[O-])ccc1NC1CCCCCC1`
Result: 4.66

###

- test target: TcMCP-1 (Trypanosoma cruzi)
- procedure details: Continuous fluorogenic (FRET) TcMCP-1 assay with Abz-LKFK(Dnp)-OH, primary and secondary screening
- Type: biochemical
- condition info: secondary (31,5 µM) / primary (25 µM) inhibition
readout kind: TcMCP-1 2º/1º ratio

For orientation, consider the following solved cases.
Fc1ccccc1N1CC2CCN(c3cccnc3)CC2C1 (stereo not drawn) [TCMDC-143422]	1,19
COc1ccc(S(=O)(=O)Nc2ccc(CN3CCN(C(=O)c4cccc(C#N)c4)CC3)cc2)cc1.O=C(O)C(F)(F)F [TCMDC-143496]	1,09
O=C(Nc1nc2cc(Cl)ccc2o1)c1cccc(Cl)c1 [TCMDC-143172]	1,30
CCOC(=O)c1cn[nH]c1S(=O)(=O)N1CCC1c1ccccc1 (stereo not drawn) [TCMDC-143456]	1,10
CN(C)c1ccc(-c2cc3nccnc3c(OC[C@H]3CCCNC3)n2)cn1.Cl [TCMDC-143408]	1,06

Request: Look at this compound and give its reported TcMCP-1 2º/1º ratio. CN(CC1CCCO1)S(=O)(=O)c1ccc(C(=O)Nc2nc(-c3ccccn3)cs2)cc1 (stereo not drawn) [TCMDC-143551]
Result: 1,14

Request: Likewise for CC(C)N(C(=O)CN1C(=O)C(N)C(=O)N(c2ccccc2)c2ccccc21)c1ccccc1 (stereo not drawn) [TCMDC-143071] ?
Result: 0,63

Request: Try the compound Cl.NS(=O)(=O)c1ccc(Nc2ncc3cccc(OC4CCNCC4)c3n2)cc1 [TCMDC-143382]
Result: 1,18

Request: Ok, now Cc1cc(C)c(C#N)c(SCC(=O)c2ccc3c(c2)OCO3)n1 [TCMDC-143625]
Result: 0,45

###

Parameter IC50: see the listing below.
- test target: TcMCP-1 (Trypanosoma cruzi)
- procedure details: Continuous fluorogenic (FRET) TcMCP-1 assay with Abz-LKFK(Dnp)-OH, primary and secondary screening
- Format: biochemical
- Method: TcMCP-1 (MEROPS ID: M32.003) and TbMCP-1 were expressed as GST fusion proteins in E. coli BL21 (DE3) Codon Plus and purified as previously described. […] Then, 40 μL of 100 mM MOPS, 0,01% Triton X-100 pH 7,2 containing TbMCP-1 (2,50 nM) or TcMCP-1 (0,34 nM) were added to each well, plates were homogenized (30 seg, orbital, medium intensity) and each well subjected to a single autofluorescence read (ex/em = 320/420 nm). […]
Please reply with the bare figure in µM and do not write the unit itself.

Examples with answers:
CN(C)c1ccc(-c2cc3nccnc3c(OC[C@H]3CCCNC3)n2)cn1.Cl	32.9
N#Cc1ccc(S(=O)(=O)N2CCN(Cc3cccc(-c4ccncc4)c3)CC2)cc1	0.694
CC(C)Oc1ccc(C(=O)Nc2ccc(N3CCOCC3)c(Cl)c2)cc1	27.9

Request: Using the record for `O=c1[nH]c(C=Cc2cccc(OCCOc3ccccc3)c2)nc(O)c1[N+](=O)[O-]` , report its IC50.
Result: 4180
